- Measured On: Enhanced ProLabel (ePL)-Tagged CAMKK2 (Homo sapiens)
- Construct: expressed in transfected cells
- Sequence (Q96RR4 whole entry): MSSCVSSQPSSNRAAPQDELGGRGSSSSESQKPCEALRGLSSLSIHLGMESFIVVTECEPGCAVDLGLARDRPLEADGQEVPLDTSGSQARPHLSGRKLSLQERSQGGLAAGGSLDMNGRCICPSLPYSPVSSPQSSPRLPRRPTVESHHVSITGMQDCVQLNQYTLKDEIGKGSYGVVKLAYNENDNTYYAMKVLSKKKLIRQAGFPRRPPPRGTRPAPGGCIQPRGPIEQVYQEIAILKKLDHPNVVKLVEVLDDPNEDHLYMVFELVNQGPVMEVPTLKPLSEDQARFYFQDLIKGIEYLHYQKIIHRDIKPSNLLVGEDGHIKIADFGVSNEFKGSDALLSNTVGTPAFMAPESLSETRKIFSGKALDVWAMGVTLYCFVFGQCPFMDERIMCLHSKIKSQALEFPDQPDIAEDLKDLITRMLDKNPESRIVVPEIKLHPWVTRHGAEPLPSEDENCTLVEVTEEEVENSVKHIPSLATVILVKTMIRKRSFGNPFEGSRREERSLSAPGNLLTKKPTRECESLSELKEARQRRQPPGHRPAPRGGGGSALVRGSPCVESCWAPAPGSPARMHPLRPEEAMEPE
- Experimental Details: Degradation of stably expressed ePL-tagged CAMKK2 in 293T cells (InCELL Hunter luminescence, 24 h)
- Assay type: cell-based
- Condition Info: minimum % protein remaining; ePL-CAMKK2 293T cells, 24 h incubation
- Description: Cells were dispensed into 384 well plates pre-spotted with serial diluted test compounds. After 24 h incubation, degradation was terminated by the addition of DiscoverX InCELL Hunter Detection reagent. Assay plates were incubated at 37° C. with 5% CO2 for 24 hours. […] After plates were incubated at room temperature for 30 min, protected from light, luminescence was read on a PHERAstar reader (BMG LABTECH, Cary, N.C.). […]
Quantity: (ePL) HEK293 24 h CAMKK2 Ymin(%)

- Compound: "Cc1ncsc1-c1ccc(CNC(=O)[C@@H]2C[C@@H](O)CN2C(=O)[C@@H](NC(=O)CCCCCCOc2ccc3c(-c4ccc(C(=O)O)c(C5CCCC5)c4)ncnc3c2)C(C)(C)C)cc1 (racemic) [Compound 6]"
  Quantity: "(ePL) HEK293 24 h CAMKK2 Ymin(%)"
  Unit Abbrev: "%"
  Reading: 42
- Compound: "Cc1ncsc1-c1ccc(CNC(=O)[C@@H]2C[C@@H](O)CN2C(=O)[C@@H](NC(=O)CCCCCCCOc2ccc3c(-c4ccc(C(=O)O)c(C5CCCC5)c4)ncnc3c2)C(C)(C)C)cc1 [Compound 5]"
  Quantity: "(ePL) HEK293 24 h CAMKK2 Ymin(%)"
  Unit Abbrev: "%"
  Reading: 32
- Compound: "Cc1ncsc1-c1ccc(CNC(=O)[C@@H]2C[C@@H](O)CN2C(=O)[C@@H](NC(=O)CCCCCCCCCCCOc2ccc3c(-c4ccc(C(=O)O)c(C5CCCC5)c4)ncnc3c2)C(C)(C)C)cc1 [Compound 1]"
  Quantity: "(ePL) HEK293 24 h CAMKK2 Ymin(%)"
  Unit Abbrev: "%"
  Reading: 43
- Compound: "Cc1ncsc1-c1ccc(CNC(=O)[C@@H]2C[C@@H](O)CN2C(=O)[C@@H](NC(=O)CCCCCCCCOc2ccc3c(-c4ccc(C(=O)O)c(C5CCCC5)c4)ncnc3c2)C(C)(C)C)cc1 [Compound 4]"
  Quantity: "(ePL) HEK293 24 h CAMKK2 Ymin(%)"
  Unit Abbrev: "%"
  Reading: 19
- Compound: "Cc1ncsc1-c1ccc(CNC(=O)[C@@H]2C[C@@H](O)CN2C(=O)[C@@H](NC(=O)CCCCCCCCCCOc2ccc3c(-c4ccc(C(=O)O)c(C5CCCC5)c4)ncnc3c2)C(C)(C)C)cc1 (racemic) [Compound 2]"
  Quantity: "(ePL) HEK293 24 h CAMKK2 Ymin(%)"
  Unit Abbrev: "%"
  Reading: 37
